Values from the supplement of paper PMC6470124

test: absolute recovery over mixed-bed multilayer solid-phase extraction; higher = better recovery; details: wastewater effluent; enrichment method: SPE
Label scheme for absolute recovery: low bracket = under 70%, middle bracket = from 70% up to 90%, high bracket = 90% and over

1) C[NH2+]CCC(Oc1ccc(C(F)(F)F)cc1)c1ccccc1 (centres undefined) [Fluoxetin]: middle bracket
2) CC(=O)C1CCC2C3CCC4=CC(=O)CCC4(C)C3CCC12C (centres undefined) [Progesteron]: high bracket
3) CC1(C)CC1C(=O)NC(=CCCCCSCC([NH3+])C(=O)[O-])C(=O)[O-] (centres undefined) [Cilastatin]: low bracket
4) CCOC(=O)C1(c2ccccc2)CC[NH+](C)CC1 [Meperidine]: middle bracket
5) Cc1cccc(C)c1OCC(C)[NH3+] (centres undefined) [Mexiletine]: low bracket
6) Nc1ccc(C=Cc2ccc(N)cc2S(=O)(=O)[O-])c(S(=O)(=O)[O-])c1 [4-4-diamino-2,2-stilbenedisulfonic-acid]: low bracket
7) CC(C)Nc1nc(O)nc(NC(C)C)n1 [Propazine-2-hydroxy I]: high bracket
8) Cc1cc(C)nc([N-]S(=O)(=O)c2ccc(N)cc2)n1 [Sulfamethazin]: middle bracket
